target: CYP2C19 (Homo sapiens, UniProt P33261); construct: incubated with human liver microsomes; tissue Eurofins ITEMG232; host or cells: human liver microsomes; experiment: CYP inhibition in human liver microsomes, CYP2C19; assay type: in vitro ADME; conditions: probe omeprazole, substrate omeprazole, read-out: CYP2C19 Inh %
Sequence (P33261 whole entry): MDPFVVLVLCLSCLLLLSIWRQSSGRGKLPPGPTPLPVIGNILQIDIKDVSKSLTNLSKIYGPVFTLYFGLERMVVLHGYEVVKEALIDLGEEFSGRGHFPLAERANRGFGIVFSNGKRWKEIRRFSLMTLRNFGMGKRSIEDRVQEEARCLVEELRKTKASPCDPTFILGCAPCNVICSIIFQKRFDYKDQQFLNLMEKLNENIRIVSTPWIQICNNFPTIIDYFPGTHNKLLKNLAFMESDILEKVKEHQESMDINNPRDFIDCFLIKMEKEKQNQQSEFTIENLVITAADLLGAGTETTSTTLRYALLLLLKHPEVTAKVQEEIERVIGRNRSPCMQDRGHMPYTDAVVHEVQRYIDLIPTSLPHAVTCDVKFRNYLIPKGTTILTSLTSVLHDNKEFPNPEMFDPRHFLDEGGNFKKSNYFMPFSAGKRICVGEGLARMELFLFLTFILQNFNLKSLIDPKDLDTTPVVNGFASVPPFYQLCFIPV
Please note: YES applies when inhibition at 10 µM is 60% or greater, and NO applies otherwise.

Study these solved cases before continuing.
{"Compound": "Cc1nccn1Cc1ccc(-c2cc(CC(C)C)sc2S(=O)(=O)NC(=O)NCc2ccc(F)c(F)c2)cc1F.O=C(O)C(F)(F)F [Example 34, trifluoroacetic acid]", "System under test": "CYP2C19 (Homo sapiens, UniProt P33261)", "Label": "YES"}
{"Compound": "Cc1nccn1Cc1ccc(-c2cc(CC(C)C)sc2S(=O)(=O)NC(=O)NCc2ccccc2)cc1F [Example 12]", "System under test": "CYP2C19 (Homo sapiens, UniProt P33261)", "Label": "YES"}
{"Compound": "CCc1nccn1Cc1ccc(-c2cc(CC(C)C)sc2S(=O)(=O)NC(=O)NCc2ccccn2)cc1 [Example 9]", "System under test": "CYP2C19 (Homo sapiens, UniProt P33261)", "Label": "NO"}
{"Compound": "Cc1nccn1Cc1ccc(-c2cc(CC(C)C)sc2S(=O)(=O)NC(=O)NCc2nccn2C)cc1F [Example 15]", "System under test": "CYP2C19 (Homo sapiens, UniProt P33261)", "Label": "YES"}
{"Compound": "Cc1nccn1Cc1ccc(-c2cc(CC(C)C)sc2S(=O)(=O)NC(=O)NCc2ccccn2)cc1 [Example 2]", "System under test": "CYP2C19 (Homo sapiens, UniProt P33261)", "Label": "NO"}

In: Test whether the compound CCc1nccn1Cc1ccc(-c2cc(CC(C)C)sc2S(=O)(=O)NC(=O)NCc2ccccc2)cc1 [Example 6] records inhibition at 10 µM of 60% or higher.
Out: NO

###

biological target: human recombinant AT2 receptor (Homo sapiens); test: Binding to AT2 receptor, radiometric scintillation assay (Eurofins); settings: ligand 125I CGP 42112A, tested at 1, 10, 100 and 1000 nM
pIC50: −log10 of the molar value.
Mark label 0 for pIC50 values under 8, and label 1 for everything at or above.

Here's what some known entries look like.
{"Chemical structure": "Cc1nccn1Cc1ccc(-c2cc(CC(C)C)sc2S(=O)(=O)NC(=O)NCCC(F)F)cc1", "Label": "label 0"}
{"Chemical structure": "CCc1nccn1Cc1ccc(-c2cc(CC(C)C)sc2S(=O)(=O)NC(=O)NCc2ccccc2)cc1", "Label": "label 1"}
{"Chemical structure": "Cc1nccn1Cc1ccc(-c2cc(CC(C)C)sc2S(=O)(=O)NC(=O)NCc2ccc(F)c(F)c2)cc1F.O=C(O)C(F)(F)F", "Label": "label 1"}
{"Chemical structure": "Cc1nccn1Cc1ccc(-c2cc(CC(C)C)sc2S(=O)(=O)NC(=O)NCCC(F)(F)F)cc1F", "Label": "label 1"}
{"Chemical structure": "Cc1nccn1Cc1ccc(-c2cc(CC(C)C)sc2S(=O)(=O)NC(=O)NCc2cccs2)cc1F.O=C(O)C(F)(F)F", "Label": "label 1"}

In: Dear colleague, could you confirm whether `Cc1nccn1Cc1ccc(-c2cc(CC(C)C)sc2S(=O)(=O)NC(=O)NCc2ccccn2)cc1F` has pIC50 at or above 8?
Out: label 1

In: Now this one: `Cc1nccn1Cc1ccc(-c2cc(CC(C)C)sc2S(=O)(=O)NC(=O)NCCCF)cc1`
Out: label 0

###

Below, each entry is listed alongside its reported inhibition at 10 µM.
Target: CYP2C19 (Homo sapiens, UniProt P33261)
Construct: incubated with human liver microsomes; tissue Eurofins ITEMG232; host or cells: human liver microsomes
Assay: CYP inhibition in human liver microsomes, CYP2C19
Format: in vitro ADME
Details: probe omeprazole, substrate omeprazole, read-out: CYP2C19 Inh %
Protocol: The following substrates were used: CYP1A phenacetin, CYP2B6 bupropion, CYP2C8 paclitaxel and amodiaquine, CYP2C9 diclofenac, CYP2C19 omeprazole, CYP2D6 dextromethorphan, CYP3A midazolam and testosterone. At the end of the incubation, the formation of metabolite was monitored by HPLC-MS/MS as the peak area response.
Please reply with the bare figure in % and do not write the unit itself.

Some solved cases for reference:
{"Chemical structure": "Cc1nccn1Cc1ccc(-c2cc(CC(C)C)sc2S(=O)(=O)NC(=O)NCC(C)C)cc1F.O=C(O)C(F)(F)F", "System under test": "CYP2C19 (Homo sapiens, UniProt P33261)", "Endpoint unit": "%", "inhibition at 10 µM": 56}
{"Chemical structure": "Cc1nccn1Cc1ccc(-c2cc(CC(C)C)sc2S(=O)(=O)NC(=O)NCCC(F)(F)F)cc1", "System under test": "CYP2C19 (Homo sapiens, UniProt P33261)", "Endpoint unit": "%", "inhibition at 10 µM": 37.3}
{"Chemical structure": "Cc1cn(Cc2ccc(-c3cc(CC(C)C)sc3S(=O)(=O)NC(=O)NCCC(F)(F)F)cc2)c(C)n1", "System under test": "CYP2C19 (Homo sapiens, UniProt P33261)", "Endpoint unit": "%", "inhibition at 10 µM": 95.8}
{"Chemical structure": "CCc1nccn1Cc1ccc(-c2cc(CC(C)C)sc2S(=O)(=O)NC(=O)NCc2ccc(F)cc2)cc1F.O=C(O)C(F)(F)F", "System under test": "CYP2C19 (Homo sapiens, UniProt P33261)", "Endpoint unit": "%", "inhibition at 10 µM": 67}

In: Look up inhibition at 10 µM: `Cc1nccn1Cc1ccc(-c2cc(CC(C)C)sc2S(=O)(=O)NC(=O)NCC2CCC(F)(F)CC2)cc1F.O=C(O)C(F)(F)F`
Out: 80

In: Try this compound too: `Cc1nccn1Cc1ccc(-c2cc(CC(C)C)sc2S(=O)(=O)NC(=O)NCCc2c[nH]cn2)cc1F`
Out: 91

###

Biological target: CYP1A (Homo sapiens)
Construct: incubated with human liver microsomes; tissue Eurofins ITEMG232; host or cells: human liver microsomes
Sequence (P05177 1-516): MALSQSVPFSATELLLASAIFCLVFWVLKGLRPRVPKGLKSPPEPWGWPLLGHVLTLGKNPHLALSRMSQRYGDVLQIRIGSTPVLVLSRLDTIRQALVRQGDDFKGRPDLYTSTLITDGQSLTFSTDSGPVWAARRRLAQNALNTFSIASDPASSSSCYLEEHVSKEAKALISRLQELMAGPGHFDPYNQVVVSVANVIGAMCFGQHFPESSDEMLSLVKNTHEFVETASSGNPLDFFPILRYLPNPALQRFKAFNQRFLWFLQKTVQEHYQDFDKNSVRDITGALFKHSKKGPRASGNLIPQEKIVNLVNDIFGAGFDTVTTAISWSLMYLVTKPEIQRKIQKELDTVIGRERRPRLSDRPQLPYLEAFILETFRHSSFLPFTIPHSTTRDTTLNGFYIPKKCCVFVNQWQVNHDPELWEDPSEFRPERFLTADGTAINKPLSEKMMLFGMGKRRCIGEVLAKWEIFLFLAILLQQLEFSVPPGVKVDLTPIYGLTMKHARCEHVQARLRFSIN
Test: CYP inhibition in human liver microsomes, CYP1A
Type: in vitro ADME
Details: probe phenacetin, substrate phenacetin, read-out: CYP1A Inh %
Entries and their inhibition at 10 µM
Report as a plain number; the unit % is understood.

Look over these answered cases.
{"Chemical structure": "Cc1nccn1Cc1ccc(-c2cc(CC(C)C)sc2S(=O)(=O)NC(=O)N(C)Cc2ccccn2)cc1F", "Endpoint unit": "%", "Observed result": 29}
{"Chemical structure": "Cc1nccn1Cc1ccc(-c2cc(CC(C)C)sc2S(=O)(=O)NC(=O)NCc2ccc(F)c(F)c2)cc1F.O=C(O)C(F)(F)F", "Endpoint unit": "%", "Observed result": -6}

Let us examine a further case.
In: Fill in the recorded inhibition at 10 µM for this compound, with CYP1A (Homo sapiens) as test system: `CCCNC(=O)NS(=O)(=O)c1sc(CC(C)C)cc1-c1ccc(Cn2ccnc2CC)c(F)c1.O=C(O)C(F)(F)F`
Out: 14

###

Molecular target: human recombinant AT2 receptor (Homo sapiens, UniProt P50052)
Sequence (P50052 1-363): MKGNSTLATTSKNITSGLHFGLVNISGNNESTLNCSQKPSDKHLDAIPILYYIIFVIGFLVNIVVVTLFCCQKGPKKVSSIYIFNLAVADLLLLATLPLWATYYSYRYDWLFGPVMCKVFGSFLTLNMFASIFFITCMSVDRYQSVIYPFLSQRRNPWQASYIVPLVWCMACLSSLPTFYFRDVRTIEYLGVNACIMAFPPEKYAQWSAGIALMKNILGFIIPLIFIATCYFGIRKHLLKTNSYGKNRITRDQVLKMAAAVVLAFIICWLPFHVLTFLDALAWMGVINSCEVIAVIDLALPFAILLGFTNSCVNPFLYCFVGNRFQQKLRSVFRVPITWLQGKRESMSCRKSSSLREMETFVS
Assay: Binding to AT2 receptor, radiometric scintillation assay (Eurofins)
Conditions: ligand 125I CGP 42112A, tested at 1, 10, 100 and 1000 nM
This listing pairs molecules with measured pIC50.
Quick note: pIC50 means taking -log10 of the concentration in moles per liter.

{"Chemical structure": "Cc1nccn1Cc1ccc(-c2cc(CC(C)C)sc2S(=O)(=O)NC(=O)NCC(F)(F)F)c(F)c1", "Observed result": 7.21}
{"Chemical structure": "Cc1nccn1Cc1ncc(-c2cc(CC(C)C)sc2S(=O)(=O)NC(=O)NCc2ccccn2)cn1", "Observed result": 7.77}
{"Chemical structure": "CCCCNC(=O)NS(=O)(=O)c1sc(CC(C)C)cc1-c1ccc(Cn2ccnc2C)cc1", "Observed result": 7.98}

In: GET /values?readout=pIC50&item= `CCCNC(=O)NS(=O)(=O)c1sc(CC(C)C)cc1-c1ccc(Cn2ccnc2CC)c(F)c1.O=C(O)C(F)(F)F`
Out: 8.29
